- target.or.system: T1, human TREM2 (human) (UniProt Q9NZC2)
- T1 sequence (looked up): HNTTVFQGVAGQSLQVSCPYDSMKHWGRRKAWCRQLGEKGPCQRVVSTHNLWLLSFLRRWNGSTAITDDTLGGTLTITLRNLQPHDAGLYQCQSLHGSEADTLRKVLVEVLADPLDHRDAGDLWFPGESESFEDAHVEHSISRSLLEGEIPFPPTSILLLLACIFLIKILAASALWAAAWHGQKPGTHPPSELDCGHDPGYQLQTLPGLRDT
- test.protocol: 1st screen, 110 nM Ab
measured.endpoint: Binding Signal (fold over 6E7 parental antibody)

Worked cases, answers included:
{"binder": "6E7 variant V8 (antibody, V domains shown) VH: EVQLVQSGAEVKKPGESLKISCKGSGYSFTSYWIAWVRQMPGKGLEWMGIIYPGDSDTKYSPSFQGQVTISADKSISTAYLQWSSLKASDTAMYFCARQRTFYYDSSDYFDYWGQGTLVTVSS VL: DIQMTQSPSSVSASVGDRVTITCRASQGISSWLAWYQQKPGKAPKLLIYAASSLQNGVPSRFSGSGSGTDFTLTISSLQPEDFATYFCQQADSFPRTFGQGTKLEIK", "result": "0.28 fold"}
{"binder": "6E7 variant V7 (antibody, V domains shown) VH: EVQLVQSGAEVKKPGESLKISCKGSGYSFTSEWIAWVRQMPGKGLEWMGIIYPGDSDTRYSPSFQGQVTISADKSISTAYLQWSSLKASDTAMYFCARQRTFYYDSSDYFDYWGQGTLVTVSS VL: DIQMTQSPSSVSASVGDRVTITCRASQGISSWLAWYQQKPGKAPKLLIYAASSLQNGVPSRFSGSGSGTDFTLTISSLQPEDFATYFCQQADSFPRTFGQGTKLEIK", "result": "0.11 fold"}
{"binder": "6E7 variant V56 (antibody, V domains shown) VH: EVQLVQSGAEVKKPGESLKISCKGSGYSFTSYWIAWVRQMPGKGLEWMGIIYPGDSDTRYQPSFQGQVTISADKSISTAYLQWSSLKASDTAMYFCARQRTFYYDSSDYFDYWGQGTLVTVSS VL: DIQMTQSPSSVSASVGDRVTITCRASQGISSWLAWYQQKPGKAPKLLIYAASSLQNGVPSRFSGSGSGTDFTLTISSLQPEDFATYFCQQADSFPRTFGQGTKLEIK", "result": "0.23 fold"}
{"binder": "6E7 variant V70 (antibody, V domains shown) VH: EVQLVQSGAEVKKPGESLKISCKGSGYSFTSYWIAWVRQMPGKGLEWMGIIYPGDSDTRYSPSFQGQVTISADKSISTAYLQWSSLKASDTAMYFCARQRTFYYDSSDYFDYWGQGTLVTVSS VL: DIQMTQSPSSVSASVGDRVTITCRASQGISSWLAWYQQKPGKAPKLLIYAAGSLQNGVPSRFSGSGSGTDFTLTISSLQPEDFATYFCQQADSFPRTFGQGTKLEIK", "result": "0.79 fold"}

[ask] Please give the measured Binding Signal (fold over 6E7 parental antibody) for this binder: 6E7 variant V91 (antibody, V domains shown) VH: EVQLVQSGAEVKKPGESLKISCKGSGYSFTSYWIAWVRQMPGKGLEWMGIIYPDDSDTRYSPSFQGQVTISADKSISTAYLQWSSLKASDTAMYFCARQRTFYYDSSDYFDYWGQGTLVTVSS VL: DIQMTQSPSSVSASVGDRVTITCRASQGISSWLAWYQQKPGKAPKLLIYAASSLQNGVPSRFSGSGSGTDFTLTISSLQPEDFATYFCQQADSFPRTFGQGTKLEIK
[reply] 0.25 fold
